# targetEntity: MsI7OMT (Medicago sativa, UniProt O24529)
# Sequence (O24529 whole entry): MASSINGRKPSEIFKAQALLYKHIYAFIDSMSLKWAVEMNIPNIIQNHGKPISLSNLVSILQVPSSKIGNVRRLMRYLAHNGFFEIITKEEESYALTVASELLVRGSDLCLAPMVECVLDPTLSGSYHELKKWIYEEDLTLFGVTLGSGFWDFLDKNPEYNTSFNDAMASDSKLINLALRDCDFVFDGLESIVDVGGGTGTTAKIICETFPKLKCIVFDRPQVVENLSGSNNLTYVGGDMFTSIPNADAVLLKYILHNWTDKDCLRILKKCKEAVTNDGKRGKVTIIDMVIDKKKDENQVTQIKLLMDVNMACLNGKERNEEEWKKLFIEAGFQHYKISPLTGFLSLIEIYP
# protocolNotes: OMT assays with purified recombinant MsI7OMT (relative activity)
# Assay type: biochemical
# protocolConditions: 50 μM S-adenosyl methionine, 100 μM acceptor substrate; most converted substrate = 100%
Readings of Relative activity, MsI7OMT for the listed compounds
measuredAttribute: Relative activity, MsI7OMT (%)

compound: O=c1cc(-c2ccc(O)cc2)oc2cc(O)ccc12 [7,4′-dihydroxyflavone]
measuredAttribute: Relative activity, MsI7OMT
reportedValue: 0

compound: O=c1c(-c2ccc(O)c(O)c2)coc2cc(O)ccc12 [7,3′,4′-trihydroxyisoflavone]
measuredAttribute: Relative activity, MsI7OMT
reportedValue: 47.1

compound: O=c1cc(-c2ccc(O)cc2)oc2cc(O)cc(O)c12
measuredAttribute: Relative activity, MsI7OMT
reportedValue: 0

compound: O=c1c(-c2ccc(O)cc2)coc2cc(O)cc(O)c12
measuredAttribute: Relative activity, MsI7OMT
reportedValue: 15

compound: COc1cc2c(=O)c(-c3ccc(O)cc3)coc2cc1O
measuredAttribute: Relative activity, MsI7OMT
reportedValue: 100

compound: O=C1C[C@@H](c2ccc(O)cc2)Oc2cc(O)cc(O)c21
measuredAttribute: Relative activity, MsI7OMT
reportedValue: 0

compound: COc1ccc(C2COc3cc(O)ccc3C2)c(O)c1 (stereo not drawn)
measuredAttribute: Relative activity, MsI7OMT
reportedValue: 0

compound: O=C1c2ccc(O)cc2OCC1c1ccc(O)cc1 (stereo not drawn) [Dihydrodaidzein]
measuredAttribute: Relative activity, MsI7OMT
reportedValue: 12.8
